# Species on record: Rattus norvegicus
# method: Inhibition of rat recombinant Rab geranylgeranyltransferase at 100 uM in presence of canine Rab7 and rat REP1 NBD-FPP based continuous fluorimetric assay
Peptide text beside a SMILES is read from it. * marks the point of attachment. Myristoyl = CCCCCCCCCCCCCC(=O)*; Morpholide = C1CN(*)CCO1
experimental-readout: inhibition (%)

CCCCCCCCCCC(=O)N[C@@H](Cc1c[nH]cn1)C(=O)N[C@@H](Cc1c[nH]cn1)C(=O)N[C@@H](Cc1ccc(O)cc1)C(=O)Nc1ccccn1	70
COC(=O)[C@H](CO)NC(=O)[C@H](Cc1ccccc1)NC(=O)[C@H](CO)NC(=O)C(Br)C(Br)c1ccc(F)cc1 (some centres undefined)	80
C[C@H](NC(=O)CCc1ccccc1)C(=O)N[C@@H](Cc1ccccc1)C(=O)N[C@@H](CCC(N)=O)C(=O)Nc1nccs1	96
CCCCCCCCCCCCCC(=O)N[C@@H](Cc1ccc(O)cc1)C(=O)N[C@@H](Cc1ccc(O)cc1)C(=O)N[C@@H](Cc1ccc(O)cc1)C(=O)N1CCOCC1 (Myristoyl-Tyr-Tyr-Tyr-Morpholide)	95
COC(=O)[C@H](Cc1ccc(O)cc1)NC(=O)CNC(=O)[C@H](C)NC(=O)/C=C/c1ccc(F)cc1	79
O=C(CNC(=O)[C@H](Cc1ccc(O)cc1)NC(=O)c1ccc(F)cc1)N[C@@H](Cc1ccc(O)cc1)C(=O)Nc1ccc(F)cc1F	98
C=CCCCOC(=O)[C@H](CCC(N)=O)NC(=O)[C@H](C)NC(=O)[C@@H](NC(=O)c1ccc(-c2ccccc2)cc1)[C@@H](C)O	89
CCCCOC(=O)[C@H](Cc1ccc(O)cc1)NC(=O)CNC(=O)[C@H](Cc1ccc(O)cc1)NC(=O)c1ccc(F)cc1	76
CC(C)C[C@H](NC(=O)[C@H](COC(C)(C)C)NC(=O)[C@H](Cc1ccccc1)NC(=O)c1ccc(-c2ccccc2)cc1)C(=O)OCCCl	87

====

# Species: Rattus norvegicus
# method: Inhibition of rat recombinant Rab geranylgeranyltransferase at 100 uM in presence of canine Rab7 and rat REP1 NBD-FPP based continuous fluorimetric assay
Peptide text beside a SMILES is read from it. * marks the point of attachment. Hydrocinnamoyl = O=C(CCc1ccccc1)*; Piperidide = C1CCN(*)CC1
experimental-readout: inhibition (%)

C[C@@H](NC(=O)CCc1ccccc1)C(=O)N[C@@H](Cc1ccccc1)C(=O)N[C@@H](CCC(=O)O)C(=O)Nc1cccc(Br)n1	100
CCCCCCCCCCOc1ccc(C(=O)N[C@@H](Cc2c[nH]cn2)C(=O)N[C@@H](Cc2c[nH]cn2)C(=O)N[C@@H](CO)C(=O)OCCN)cc1	70
CN(CCc1ccccn1)C(=O)[C@H](Cc1ccc(O)cc1)NC(=O)CCNC(=O)[C@H](Cc1c[nH]cn1)NC(=O)OCc1ccccc1	78
CON(C)C(=O)[C@H](CCC(=O)O)NC(=O)[C@H](C)NC(=O)[C@@H](NC(=O)c1ccc(-c2ccccc2)cc1)[C@@H](C)O	102
O=C(CCc1ccccc1)N[C@@H](CO)C(=O)N[C@@H](Cc1ccccc1)C(=O)N[C@@H](CO)C(=O)N1CCCCC1 (Hydrocinnamoyl-Ser-Phe-Ser-Piperidide)	62
C=CCCCCCCCCCOC(=O)[C@H](CO)NC(=O)[C@H](Cc1ccccc1)NC(=O)[C@H](CO)NC(=O)CCc1ccccc1	84
